# assay.name: Toxicity liver stage against HepG2, at 10uM
# Assay type: cell-based
# Set-up: test concentration 10 uM, cell line HepG2-A16-CD81EGFP
# particulars: human, HepG2-A16-CD81EGFP cells; read-out: INHIBITION
I'd appreciate it if you could supply cytotoxicity at 10 µM values for the items below.
Answers are plain numbers, in %.

Check out these entries, answers already filled in.
{"molecule": "COCCOc1ncccc1C(=O)N1CCCn2ncnc21", "unit": "%", "test.result": -2.98}
{"molecule": "COc1ccc(C)cc1CC(=O)N1CCN(CC(C)O)CC1 (stereo not drawn)", "unit": "%", "test.result": -8.65}
{"molecule": "CNc1nc(CNC(=O)Nc2cccc(C(C)OC)c2)cs1 (stereo not drawn)", "unit": "%", "test.result": -13.3}

Hey, quick one: what's cytotoxicity at 10 µM for each of these?
1. O=C(C1=NN(Cc2ccccc2)c2ccccc2S1(=O)=O)N1CCCC1
2. O=C(NCc1ccco1)c1ccc(N2CCOCC2)cc1
3. CCN(CC)CCNc1ncc(-c2cc(C)no2)c(-c2ccoc2C)n1

[-4.65, 4.31, -4.94]

Hey, quick one: what's cytotoxicity at 10 µM for each of these?
1. CCn1cnnc1C1CCN(C(=O)c2ccc(C(=O)OC)s2)CC1
2. Cc1cccc(CO[C@H]2CN(c3nnc(C)s3)[C@@H]3CCCO[C@H]23)n1
3. CN(C)C1COC2(CCN(Cc3ccncc3)CC2)C1 (stereo not drawn)
4. CC(C)Cc1noc(CN2CCOCC2)n1
5. Cc1nc(O)cc(CN2C[C@H](NC(=O)C3CCC3)[C@@H](C3CC3)C2)n1
6. CNC(=O)C1CCCCN1C(=O)C1CCN(S(C)(=O)=O)CC1 (stereo not drawn)

1: -8.16; 2: 4.47; 3: -69.2; 4: -2.27; 5: 0.675; 6: 6.03

Hey, quick one: what's cytotoxicity at 10 µM for each of these?
1. CCc1ccsc1CNC(=O)CNC(=O)C(C)(C)C
2. c1cncc(CNc2cncc(C3CCCN3)n2)c1 (stereo not drawn)
3. Cc1ccccc1NCc1nc2n(n1)CCCCC2
4. Cc1cc(NC(=O)Cc2ccc3c(c2)OCO3)n(C)n1
5. N#CCCN(Cc1ccco1)C(=O)CCCc1ccccc1
6. Cc1ccc(CCNC(=O)Nc2cc(C(F)(F)F)c[nH]c2=O)o1
7. Cc1noc(C)c1CN1CCC2(CC1)CN(c1ccccn1)CCO2

1. -4.08
2. 9.93
3. 4.7
4. 10.1
5. 73.1
6. -11.9
7. -3

* * *

# assay.name: Toxicity liver stage against HepG2, at 10uM
# Type: cell-based
# Parameters: test concentration 10 uM, cell line HepG2-A16-CD81EGFP
# particulars: human, HepG2-A16-CD81EGFP cells; read-out: INHIBITION
property.label: cytotoxicity at 10 µM
Entry format: amount then unit.

Check out these entries, answers already filled in.
{"compound": "Cn1cccc1C(=O)N1CCC2(CC1)CN(c1cncnc1)C(=O)CO2", "cytotoxicity at 10 µM": "4.35%"}
{"compound": "COCC[C@]1(O)CCN(Cc2nc(C)c(C)s2)C[C@H]1C", "cytotoxicity at 10 µM": "2.14%"}
{"compound": "Cc1cc(C(=O)NCCN2CCCCC2)nn1C(C)(C)C", "cytotoxicity at 10 µM": "-3%"}
{"compound": "CN(CCc1ccccn1)[C@@H]1CCN(c2cccc(C#N)n2)C[C@H]1O", "cytotoxicity at 10 µM": "-13.9%"}
{"compound": "Cc1cc(C)cc(OCCN(C)Cc2ccc(S(=O)(=O)N(C)C)o2)c1", "cytotoxicity at 10 µM": "8.2%"}

Hey, quick one: what's cytotoxicity at 10 µM for each of these?
1. CSc1ccc(CN(CCO)C(=O)CCOc2ccccc2)cc1
2. Cc1ccc(CN2C[C@@H]3COC[C@H](C(=O)N4CCCCO4)[C@@H]3C2)o1
3. COc1ccc(-c2ccnc(N)c2)c(OC)c1
4. Cc1csc(C2CCCN(C(=O)c3c(C)nn4cccnc34)C2)n1 (centres undefined)
5. Nc1nc(CN2CCOC(Cn3cccn3)C2)nc2ccccc12 (centres undefined)
6. N#CCCCS(=O)(=O)N1CCC(CSc2ccccc2)C1 (centres undefined)
7. COc1cc(C(=O)NCCS(=O)(=O)N(C)C)c2ccccc2n1

1. 2.08%
2. 3.37%
3. 17.6%
4. -10.4%
5. -20.4%
6. 1.7%
7. -0.0932%

Hey, quick one: what's cytotoxicity at 10 µM for each of these?
1. Cc1noc([C@@H]2C[C@@H]3CCN(c4nnc(C)s4)C[C@H]3O2)n1
2. CN(CCCc1nccn1C)c1nccc(-c2cc(C(=O)O)ccn2)n1

["5.35%", "-4.9%"]

Hey, quick one: what's cytotoxicity at 10 µM for each of these?
1. CC(=O)c1cccc(OCCCC(=O)N(C)Cc2ccccn2)c1
2. COC(=O)CNC(=O)c1ccc(OC2CCN(S(C)(=O)=O)CC2)c(Cl)c1
3. CC(NC(=O)NCCCn1cncn1)c1ccc(F)cc1 (centres undefined)
4. O=C(c1cccc(Cl)c1)N1CCCC2(CCCNC2)C1 (centres undefined)

1. -24.4%
2. -4.52%
3. -9.92%
4. -152%

Values compiled from ChEMBL document CHEMBL4513216.
